Reported pEC50 by item:
test-system: human PPAR alpha (Homo sapiens, UniProt Q07869)
Sequence (Q07869 239-466 limits assumed): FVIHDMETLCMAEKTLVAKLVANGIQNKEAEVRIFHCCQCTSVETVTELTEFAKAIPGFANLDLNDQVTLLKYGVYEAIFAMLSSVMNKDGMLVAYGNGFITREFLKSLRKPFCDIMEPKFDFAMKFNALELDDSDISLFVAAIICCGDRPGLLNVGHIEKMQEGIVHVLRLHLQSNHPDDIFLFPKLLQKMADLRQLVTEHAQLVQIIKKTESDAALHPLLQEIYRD
assay-name: PPAR transient transfection (transactivation) assay in CV-1 cells, hPPAR alpha
settings: PPAR LBD-GAL4 chimera, SPAP reporter, 24 h with compound, read-out: human αEC50
Description: Compounds were screened for functional potency in transient transfection assays in CV-1 cells for their ability to activate the PPAR subtypes (transactivation assay). A previously established chimeric receptor system was utilized to allow comparison of the relative transcriptional activity of the receptor subtypes on the same target gene and to prevent endogenous receptor activation from complicating the interpretation of results. […]
pEC50: −log10 of the molar value.
metric-name: pEC50

>>> df
                               smiles_input                               test_system  numeric_result
0  C#Cc1ccc(-c2nc(C)c(C(=O)NCc3ccc(OC(C)(C)C(=O)O)cc3)s2)cc1  human PPAR alpha (Homo sapiens, UniProt Q07869)            7.44
1  Cc1nc(-c2ccc(C(F)(F)F)cc2)sc1C(=O)N(C)Cc1ccc(OC(C)(C)C(=O)O)cc1  human PPAR alpha (Homo sapiens, UniProt Q07869)            6.64
2  Cc1nc(-c2ccc(C(F)(F)F)c(F)c2)sc1C(=O)NCc1ccc(OC(C)(C)C(=O)O)cc1  human PPAR alpha (Homo sapiens, UniProt Q07869)            8.15
3  COc1ccc(-c2nc(C)c(C(=O)NCc3ccc(OC(C)(C)C(=O)O)cc3)s2)cc1  human PPAR alpha (Homo sapiens, UniProt Q07869)            7.70
4  Cc1nc(-c2ccc(OC(F)(F)F)cc2)sc1C(=O)NCc1ccc(OC(C)(C)C(=O)O)cc1  human PPAR alpha (Homo sapiens, UniProt Q07869)            8.40
5  Cc1nc(-c2ccc([N+](=O)[O-])cc2)sc1C(=O)NCc1ccc(OC(C)(C)C(=O)O)cc1  human PPAR alpha (Homo sapiens, UniProt Q07869)            7.57
6  Cc1nc(-c2ccc(Cl)cc2)sc1C(=O)NCc1ccc(OC(C)(C)C(=O)O)cc1  human PPAR alpha (Homo sapiens, UniProt Q07869)            7.85
7  COc1cc(CNC(=O)c2sc(-c3ccc(C(F)(F)F)cc3)nc2C)ccc1OC(C)(C)C(=O)O  human PPAR alpha (Homo sapiens, UniProt Q07869)            8.00
